These entries and their values trace back to patent EP0456229A2.

tested on: Es-1 sulfatase; test: Substrate specificity: hydrolysis of etoposide derivatives (TLC); format: biochemical, Streptomyces griseorubiginosus S980-14; settings: 0.6 u enzyme, 50 mM Tris-HCl pH 7.5, 37°C for 18 hours, silica gel TLC
measured_quantity: substrate for the enzyme

>>> assay_result("COc1cc([C@@H]2c3cc4c(cc3[C@@H](O[C@@H]3O[C@@H]5CO[C@@H](C)O[C@H]5[C@H](O)[C@H]3O)[C@H]3COC(=O)[C@H]23)OCO4)cc(OC)c1OS(=O)(=O)O [(III), etoposide 4'-sulfate]")
"are substrates"
>>> assay_result("COc1cc(C2c3cc4c(cc3C(OC3OC5COC(C)OC5C(O)C3OS(=O)(=O)O)C3COC(=O)C23)OCO4)cc(OC)c1O (stereo not shown) [(V), etoposide 2''-sulfate]")
"are not"
>>> assay_result("COc1cc(C2c3cc4c(cc3C(OC3OC5COC(C)OC5C(OS(=O)(=O)O)C3O)C3COC(=O)C23)OCO4)cc(OC)c1O (stereo not shown) [(VI), etoposide 3''-sulfate]")
"are not"
>>> assay_result("COc1cc(C2c3cc4c(cc3C(OC3OC5COC(C)OC5C(OC(C)=O)C3OC(C)=O)C3COC(=O)C23)OCO4)cc(OC)c1OS(=O)(=O)O (stereo not shown) [(IV), 2'',3''-di-O-acetyl-etoposide-4'-sulfate]")
"are substrates"
